Test: AUC in Wistar Han rat at 10 mg/kg, po by LC/MS method
Format: ADME, organism-based
Details: in vivo
parameter: AUC (µM·h)
Response body: numeric value in µM·h, unit text excluded.

{"structure_notation": "COC(=O)N[C@H](C(=O)N1CCC[C@H]1c1ncc(-c2cc(F)c3c(c2)O[C@@H](c2ccc4c(c2)OCCC4)n2c-3cc3cc(-c4cnc([C@@H]5CCCN5C(=O)[C@@H](NC(=O)OC)C5CCOCC5)[nH]4)ccc32)[nH]1)C(C)C", "AUC [µM·h]": 0.13}

In the following, a different molecule is considered.
Entry CCc1ccc([C@@H]2Oc3cc(-c4cnc([C@@H]5CCCN5C(=O)[C@@H](NC(=O)OC)[C@@H]5CCOC(C)(C)C5)[nH]4)cc(F)c3-c3cc4cc(-c5cnc([C@@H]6CCCN6C(=O)[C@@H](NC(=O)OC)C(C)C)[nH]5)ccc4n32)s1 , AUC reported as 0.23
